Values were extracted from patent US20020007060A1.

Structures can show the parent of a compound that is named as a salt.
Exercise: for every item that follows, state its recorded melting point.

compound="CC(CS(=O)(=O)c1ccc(-c2ccc(Cl)cc2)cc1)N(O)C=O (stereo not shown)" measured_metric="melting point" readout_value="178 to 180 °C"
compound="Cc1ccc(CC(COc2ccc(-c3ccc(C#N)cc3)cc2)N(O)C=O)cc1 (racemic)" measured_metric="melting point" readout_value="173 to 175 °C"
compound="CCCCC(COc1ccc(-c2ccc(C#N)cc2)cc1)N(O)C=O (racemic)" measured_metric="melting point" readout_value="105 to 108 °C"
compound="O=CN(O)C(CS(=O)(=O)c1ccc(-c2ccc(OC(F)(F)F)cc2)cc1)c1ccccn1 (racemic)" measured_metric="melting point" readout_value="116.4 to 117.6 °C"
compound="CN1C(=O)N(CC(COc2ccc(-c3cccc(C#N)c3)cc2)N(O)C=O)C(=O)C1(C)C (stereo not shown)" measured_metric="melting point" readout_value="130 to 132 °C"

Parameters: items (list). Returns: melting point for each item.
1. CC(C)CC(COc1ccc(-c2ccc(C#N)cc2)cc1)N(O)C=O (racemic)
2. CSc1ccc(-c2ccc(S(=O)(=O)CC(CO)N(O)C=O)cc2)cc1 (racemic)
3. CC1(C)CC(=O)N(CC(COc2ccc(-c3ccc(C#N)cc3)cc2)N(O)C=O)C(=O)C1 (stereo not shown) (as salt: potassium)

RESULT:
["112 to 113 °C", "161 to 162 °C", "121 °C"]

Parameters: items (list). Returns: melting point for each item.
1. CS(=O)(=O)c1ccc(-c2ccc(S(=O)(=O)CC(CO)N(O)C=O)cc2)cc1 (racemic)
2. CC(CS(=O)(=O)c1ccc(Oc2ccc(Cl)cc2)cc1)N(O)C=O (stereo not shown)
3. O=CN(O)C(CO)CS(=O)(=O)c1ccc(-c2ccc(Cl)cc2)cc1 (racemic)
4. CCC(C)C(COc1ccc(-c2ccc(C#N)cc2)cc1)N(O)C=O (racemic)
5. O=CN(O)C(COCc1ccccc1)CS(=O)(=O)c1ccc(-c2ccc(C(F)(F)F)cc2)cc1 (stereo not shown)
6. O=CN(O)C(CS(=O)(=O)c1ccc(-c2ccc(C(F)(F)F)cc2)cc1)c1cccnc1 (racemic)
7. O=CN(O)C(CCO)CS(=O)(=O)c1ccc(-c2ccc(C(F)(F)F)cc2)cc1 (racemic)

RESULT:
["165 to 167 °C", "144 to 145 °C", "153 to 154 °C", "96 to 98 °C", "172 °C", "186.5 to 188.8 °C", "186.5 to 188.8 °C"]

Parameters: items (list). Returns: melting point for each item.
1. CN1C(=O)N(CC(COc2ccc(-c3ccc(C#N)cc3)cc2)N(O)C=O)C(=O)C1(C)C (racemic)
2. N#Cc1ccc(-c2ccc(OCC(COc3ccccc3)N(O)C=O)cc2)cc1 (racemic)
3. CN1C(=O)N(CC(COc2ccc(-c3ccc(S(N)(=O)=O)cc3)cc2)N(O)C=O)C(=O)C1(C)C (stereo not shown)
4. CCC(CS(=O)(=O)c1ccc(-c2ccc(OC)cc2)cc1)N(O)C=O (stereo not shown)

RESULT:
["65 to 67 °C", "133 to 135 °C", "203 to 205 °C", "199 to 200 °C"]
